targetSystem: recombinant human DPP8 (Homo sapiens, UniProt Q6V1X1)
Construct: purchased PBS Bioscience
Sequence (Q6V1X1 whole entry): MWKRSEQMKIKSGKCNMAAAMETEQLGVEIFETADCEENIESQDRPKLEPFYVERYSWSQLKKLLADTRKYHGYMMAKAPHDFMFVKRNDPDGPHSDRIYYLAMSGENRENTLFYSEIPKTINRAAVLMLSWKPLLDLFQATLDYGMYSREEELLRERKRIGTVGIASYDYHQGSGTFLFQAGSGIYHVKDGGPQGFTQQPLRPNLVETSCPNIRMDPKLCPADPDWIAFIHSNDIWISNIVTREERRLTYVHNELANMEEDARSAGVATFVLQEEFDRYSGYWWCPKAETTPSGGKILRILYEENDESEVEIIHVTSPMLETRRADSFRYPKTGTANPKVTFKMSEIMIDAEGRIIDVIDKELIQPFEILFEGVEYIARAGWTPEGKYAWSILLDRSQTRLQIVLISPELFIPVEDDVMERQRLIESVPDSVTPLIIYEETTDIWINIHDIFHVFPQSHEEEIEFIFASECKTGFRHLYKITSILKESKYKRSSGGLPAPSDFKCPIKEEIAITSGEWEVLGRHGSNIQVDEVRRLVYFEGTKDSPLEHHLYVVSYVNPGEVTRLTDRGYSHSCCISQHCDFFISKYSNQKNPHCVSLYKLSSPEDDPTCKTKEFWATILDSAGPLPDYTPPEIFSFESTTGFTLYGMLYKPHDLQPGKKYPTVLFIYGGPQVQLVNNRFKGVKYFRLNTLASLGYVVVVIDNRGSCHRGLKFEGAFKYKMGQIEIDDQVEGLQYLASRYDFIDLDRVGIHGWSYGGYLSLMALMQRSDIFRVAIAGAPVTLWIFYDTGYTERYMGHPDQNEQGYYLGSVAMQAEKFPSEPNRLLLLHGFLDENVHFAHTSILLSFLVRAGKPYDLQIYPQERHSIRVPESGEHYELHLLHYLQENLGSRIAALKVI
experimentalDetails: DPP8 inhibition, fluorogenic substrate Z-Ala-Pro-AMC
Assay type: biochemical
statedConditions: 25° C., Z-Ala-Pro-AMC substrate
pIC50: −log10 of the molar value.
Label rule met when pIC50 is at or above 5; otherwise label rule not met.

Task: Does N#C[C@@H]1CC(F)(F)CN1C(=O)CN1CC[C@H](Nc2ccc3ccccc3c2)C1 [Example 15] have a reported pIC50 of at least 5?
Output: rule met

Task: Does N#C[C@@H]1CCCN1C(=O)CN1CC[C@H](Nc2cncc3ccccc23)C1 [Example 19] have a reported pIC50 of at least 5?
Output: rule not met

Task: Does N#C[C@@H]1CC(F)(F)CN1C(=O)CN1CC[C@H](Nc2ccnc3ccccc23)C1 [Example 7] have a reported pIC50 of at least 5?
Output: rule not met

Task: Does N#C[C@@H]1CCCN1C(=O)CN1CC[C@H](NC(=O)c2coc3cc(F)ccc23)C1 [Example 44] have a reported pIC50 of at least 5?
Output: rule not met

Task: Does COc1cc(NC2CCN(CC(=O)N3CCC[C@H]3C#N)CC2)c2cccnc2c1 [Example 124] have a reported pIC50 of at least 5?
Output: rule not met

Task: Does N#C[C@@H]1CCCN1C(=O)CN1CC[C@H](NC(=O)c2ccc3ccoc3c2)C1 [Example 57] have a reported pIC50 of at least 5?
Output: rule met

Task: Does N#C[C@@H]1CCCN1C(=O)CN1CC[C@H](Nc2cccc3ncccc23)C1 [Example 27] have a reported pIC50 of at least 5?
Output: rule not met

Task: Does CN(c1cnc2ccccc2c1)[C@@H]1CCN(CC(=O)N2CCC[C@H]2C#N)C1 [Example 138] have a reported pIC50 of at least 5?
Output: rule not met

Task: Does N#C[C@@H]1CC(F)(F)CN1C(=O)CN1CC[C@H](Nc2cncc3ccoc23)C1 [Example 12] have a reported pIC50 of at least 5?
Output: rule met

Task: Does N#C[C@@H]1CC(F)(F)CN1C(=O)CN1CC[C@H](Nc2cccc3ccsc23)C1 [Example 10] have a reported pIC50 of at least 5?
Output: rule met

Task: Does COc1ccc2nccc(O[C@H]3CCN(CC(=O)N4CCC[C@H]4C#N)C3)c2c1 [Example 84] have a reported pIC50 of at least 5?
Output: rule not met

Task: Does CN(c1cccc2ncccc12)[C@@H]1CCN(CC(=O)N2CCC[C@H]2C#N)C1 [Example 139] have a reported pIC50 of at least 5?
Output: rule not met

Task: Does CN(c1ccc2ncccc2c1)[C@H]1CCN(CC(=O)N2CCC[C@H]2C#N)C1 [Example 145] have a reported pIC50 of at least 5?
Output: rule not met

Task: Does N#C[C@@H]1CCCN1C(=O)CN1CC[C@H](Nc2cccc3sccc23)C1 [Example 20] have a reported pIC50 of at least 5?
Output: rule not met

Task: Does N#C[C@@H]1CCCN1C(=O)CN1CC[C@@H](Nc2cncc3ccccc23)C1 [Example 24] have a reported pIC50 of at least 5?
Output: rule not met

Task: Does N#C[C@@H]1CCCN1C(=O)CN1CC[C@H](Oc2ncnc3sccc23)C1 [Example 68] have a reported pIC50 of at least 5?
Output: rule not met

Task: Does N#C[C@@H]1CC(F)(F)CN1C(=O)CN1CC[C@H](Nc2cccc(-c3ccccc3)c2)C1 [Example 16] have a reported pIC50 of at least 5?
Output: rule met

Task: Does N#C[C@@H]1C[C@H](F)CN1C(=O)CN1CCC(Nc2cccc3ncccc23)CC1 [Example 113] have a reported pIC50 of at least 5?
Output: rule met

Task: Does N#C[C@@H]1CCCN1C(=O)CN1CC[C@H](NC(=O)c2coc3ccc(F)cc23)C1 [Example 43] have a reported pIC50 of at least 5?
Output: rule not met

Task: Does N#C[C@@H]1CC(F)(F)CN1C(=O)CN1CC[C@H](Nc2ccccc2-c2ccccc2)C1 [Example 13] have a reported pIC50 of at least 5?
Output: rule met

Task: Does CN(c1ccc2cccnc2c1)[C@H]1CCN(CC(=O)N2CCC[C@H]2C#N)C1 [Example 146] have a reported pIC50 of at least 5?
Output: rule not met

Task: Does CN(c1cnc2ccccc2c1)[C@H]1CCN(CC(=O)N2CCC[C@H]2C#N)C1 [Example 142] have a reported pIC50 of at least 5?
Output: rule not met

Task: Does COc1cc2nccc(O[C@H]3CCN(CC(=O)N4CCC[C@H]4C#N)C3)c2cc1OC [Example 101] have a reported pIC50 of at least 5?
Output: rule not met

Task: Does COc1ccc(NC2CCN(CC(=O)N3C[C@@H](F)C[C@H]3C#N)CC2)c2cccnc12 [Example 135] have a reported pIC50 of at least 5?
Output: rule met

Task: Does Cc1cnc2cccc(NC3CCN(CC(=O)N4CCC[C@H]4C#N)CC3)c2c1 [Example 121] have a reported pIC50 of at least 5?
Output: rule not met

* * *

targetSystem: DPP4 (Homo sapiens, UniProt P27487)
Sequence (P27487 whole entry): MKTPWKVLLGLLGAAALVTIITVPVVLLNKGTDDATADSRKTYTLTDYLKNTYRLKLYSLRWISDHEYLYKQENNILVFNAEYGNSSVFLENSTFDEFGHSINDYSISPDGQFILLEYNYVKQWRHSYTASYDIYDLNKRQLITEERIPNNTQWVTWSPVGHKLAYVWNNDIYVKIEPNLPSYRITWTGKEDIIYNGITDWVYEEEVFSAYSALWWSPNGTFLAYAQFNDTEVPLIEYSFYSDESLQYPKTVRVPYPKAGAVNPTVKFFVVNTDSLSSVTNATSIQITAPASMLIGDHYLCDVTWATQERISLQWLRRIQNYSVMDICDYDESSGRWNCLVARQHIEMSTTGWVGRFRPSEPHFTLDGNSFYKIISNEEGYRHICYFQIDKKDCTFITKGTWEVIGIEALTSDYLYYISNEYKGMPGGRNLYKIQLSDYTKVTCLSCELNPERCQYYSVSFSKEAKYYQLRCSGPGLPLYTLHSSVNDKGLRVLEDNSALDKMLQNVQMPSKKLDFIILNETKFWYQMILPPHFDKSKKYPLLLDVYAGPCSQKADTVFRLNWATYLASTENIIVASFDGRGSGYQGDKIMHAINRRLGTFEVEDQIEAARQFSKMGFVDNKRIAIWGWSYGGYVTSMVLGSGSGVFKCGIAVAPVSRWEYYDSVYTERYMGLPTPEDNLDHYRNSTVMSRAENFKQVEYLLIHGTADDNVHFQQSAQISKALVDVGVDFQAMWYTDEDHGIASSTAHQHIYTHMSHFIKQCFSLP
experimentalDetails: DPP4 inhibition, fluorogenic substrate H-Gly-Pro-AMC
Format: biochemical
Parameters: purchased R&D Systems
statedConditions: recombinant human DPP4
measuredQuantity: log10 IC50 (log10 of the value in µM)
Parameter value (number): base-10 log of IC50 in µM.

Task: What value of log10 IC50 on DPP4 (Homo sapiens, UniProt P27487) does N#C[C@@H]1CCCN1C(=O)CN1CC[C@@H](Nc2cccc3ncc(F)cc23)C1 [Example 209] have?
Output: 0.65

Task: What value of log10 IC50 on DPP4 (Homo sapiens, UniProt P27487) does Cc1cccc2c(NC3CCN(CC(=O)N4C[C@@H](F)C[C@H]4C#N)CC3)ccnc12 [Example 343] have?
Output: 1.24

Task: What value of log10 IC50 on DPP4 (Homo sapiens, UniProt P27487) does COc1ccc(N[C@@H]2CCN(CC(=O)N3C[C@@H](F)C[C@H]3C#N)C2)c2cccnc12 [Example 178] have?
Output: 0.13

Task: What value of log10 IC50 on DPP4 (Homo sapiens, UniProt P27487) does CN(C(=O)c1ccc(NC2CCN(CC(=O)N3C[C@@H](F)C[C@H]3C#N)CC2)c2cccnc12)c1ccccc1 [Example 392] have?
Output: 0.32

Task: What value of log10 IC50 on DPP4 (Homo sapiens, UniProt P27487) does Cc1cnc2cccc(N[C@@H]3CCN(CC(=O)N4C[C@@H](F)C[C@H]4C#N)C3)c2c1 [Example 179] have?
Output: 0.29

Task: What value of log10 IC50 on DPP4 (Homo sapiens, UniProt P27487) does Cc1ccc2ncccc2c1N[C@@H]1CCN(CC(=O)N2C[C@@H](F)C[C@H]2C#N)C1 [Example 180] have?
Output: 0.01

Task: What value of log10 IC50 on DPP4 (Homo sapiens, UniProt P27487) does CN(c1cncc2ccoc12)C1CCN(CC(=O)N2C[C@@H](F)C[C@H]2C#N)CC1 [Example 350] have?
Output: 0.90

Task: What value of log10 IC50 on DPP4 (Homo sapiens, UniProt P27487) does N#C[C@@H]1C[C@H](F)CN1C(=O)CN1CC[C@H](Nc2ccc(OC(F)(F)F)c3ncccc23)C1 [Example 266] have?
Output: 0.12

Task: What value of log10 IC50 on DPP4 (Homo sapiens, UniProt P27487) does N#C[C@@H]1CCCN1C(=O)CN1CCC(Nc2ccc(C(=O)Nc3ccncc3)c3ncccc23)CC1 [Example 401] have?
Output: 1.18

Task: What value of log10 IC50 on DPP4 (Homo sapiens, UniProt P27487) does N#C[C@@H]1C[C@H](F)CN1C(=O)CN1CCC(Nc2ccnc3ccc(Cl)cc23)CC1 [Example 338] have?
Output: 0.84

Task: What value of log10 IC50 on DPP4 (Homo sapiens, UniProt P27487) does COc1ccc2c(N[C@@H]3CCN(CC(=O)N4C[C@@H](F)C[C@H]4C#N)C3)ccnc2c1 [Example 193] have?
Output: 0.96

Task: What value of log10 IC50 on DPP4 (Homo sapiens, UniProt P27487) does N#C[C@@H]1C[C@H](F)CN1C(=O)CN1CC[C@H](Nc2cc(F)c3ncccc3c2)C1 [Example 278] have?
Output: -0.21

Task: What value of log10 IC50 on DPP4 (Homo sapiens, UniProt P27487) does N#C[C@@H]1CCCN1C(=O)CN1CC[C@@H](Nc2ccnc3c(F)cccc23)C1 [Example 227] have?
Output: 1.50

Task: What value of log10 IC50 on DPP4 (Homo sapiens, UniProt P27487) does N#C[C@@H]1C[C@H](F)CN1C(=O)CN1CC[C@H](Nc2cnc3nc(Cl)ccc3c2)C1 [Example 273] have?
Output: -0.28

Task: What value of log10 IC50 on DPP4 (Homo sapiens, UniProt P27487) does Cc1ccc2ncccc2c1N[C@H]1CCN(CC(=O)N2C[C@@H](F)C[C@H]2C#N)C1 [Example 259] have?
Output: 0.10

Task: What value of log10 IC50 on DPP4 (Homo sapiens, UniProt P27487) does N#C[C@@H]1CCCN1C(=O)CN1CC[C@H](Nc2ccc(OCc3ccccc3)c3ncccc23)C1 [Example 248] have?
Output: 0.85

Task: What value of log10 IC50 on DPP4 (Homo sapiens, UniProt P27487) does COc1cc(N[C@H]2CCN(CC(=O)N3CCC[C@H]3C#N)C2)c2cccnc2c1 [Example 237] have?
Output: 0.97

Task: What value of log10 IC50 on DPP4 (Homo sapiens, UniProt P27487) does N#C[C@@H]1C[C@H](F)CN1C(=O)CN1CC[C@@H](Nc2ccnc3c(Cl)cccc23)C1 [Example 189] have?
Output: 0.54

Task: What value of log10 IC50 on DPP4 (Homo sapiens, UniProt P27487) does N#C[C@@H]1C[C@H](F)CN1C(=O)CN1CC[C@H](Nc2c(F)ccc3ncccc23)C1 [Example 261] have?
Output: 0.07

Task: What value of log10 IC50 on DPP4 (Homo sapiens, UniProt P27487) does N#C[C@@H]1C[C@H](F)CN1C(=O)CN1CCC(Nc2ccc(C(=O)Nc3ccccc3)c3ncccc23)CC1 [Example 394] have?
Output: 0.40

Task: What value of log10 IC50 on DPP4 (Homo sapiens, UniProt P27487) does N#C[C@@H]1C[C@H](F)CN1C(=O)CN1CC[C@@H](Nc2ccc(OC(F)(F)F)c3ncccc23)C1 [Example 186] have?
Output: 0.35

Task: What value of log10 IC50 on DPP4 (Homo sapiens, UniProt P27487) does N#C[C@@H]1C[C@H](F)CN1C(=O)CN1CC[C@H](Nc2cc(Cl)c3ncccc3c2)C1 [Example 279] have?
Output: -0.60
